# System: Mycobacterium tuberculosis
# Protocol description: Antitubercular activity against Mycobacterium tuberculosis H37Ra assessed as bacterial growth inhibition
# Format: functional
// MIC lookup, one value per entry

Structure	Unit text	MIC
CC(C)[C@H]1NC(=O)[C@H](Cc2ccccc2)NC(=O)[C@@H](C(C)C)NC(=O)[C@@H](C)NC(=O)[C@H](COC(=O)/C=C/c2ccc(F)c(F)c2)NC(=O)[C@@H](Cc2c[nH]c3ccccc23)NC(=O)[C@@H](COC(=O)/C=C/c2ccc(F)c(F)c2)NC1=O	µM	12.5
CC(C)[C@H]1NC(=O)CNC(=O)[C@H](CO)NC(=O)[C@@H](Cc2c[nH]c3ccccc23)NC(=O)[C@@H](C)NC(=O)[C@@H](C(C)C)NC(=O)[C@H](Cc2ccccc2)NC1=O	µM	100
COc1cc(/C=C/C(=O)OC[C@H]2NC(=O)[C@@H](C(C)C)NC(=O)[C@H](Cc3ccccc3)NC(=O)[C@@H](C(C)C)NC(=O)[C@@H](C)NC(=O)[C@H](CO)NC(=O)[C@@H](Cc3c[nH]c4ccccc34)NC2=O)ccc1OCc1ccccc1	µM	50

---

# Test system: Mycobacterium tuberculosis
# Protocol description: Antitubercular activity against Mycobacterium tuberculosis H37Ra assessed as bacterial growth inhibition
# Type: functional
# MIC per record follows
Measurement type: MIC

Structure	Experimental target	Assay result
CC(C)[C@H]1NC(=O)[C@H](Cc2ccccc2)NC(=O)[C@@H](C(C)C)NC(=O)[C@@H](C)NC(=O)[C@H](COC(=O)/C=C/c2cccc(Cl)c2)NC(=O)[C@@H](Cc2c[nH]c3ccccc23)NC(=O)[C@@H](COC(=O)/C=C/c2cccc(Cl)c2)NC1=O	Mycobacterium tuberculosis	100 µM
CC(C)[C@H]1NC(=O)CNC(=O)[C@H](C)NC(=O)[C@@H](Cc2c[nH]c3ccccc23)NC(=O)[C@@H](CO)NC(=O)[C@@H](C(C)C)NC(=O)[C@H](Cc2ccccc2)NC1=O	Mycobacterium tuberculosis	100 µM
COc1cc(Br)c(/C=C/C(=O)OC[C@@H]2NC(=O)[C@@H](Cc3c[nH]c4ccccc34)NC(=O)[C@@H](COC(=O)/C=C/c3cc(OC)c(OC)cc3Br)NC(=O)[C@@H](C(C)C)NC(=O)[C@H](Cc3ccccc3)NC(=O)[C@@H](C(C)C)NC(=O)[C@@H](C)NC2=O)cc1OC	Mycobacterium tuberculosis	100 µM
Cc1ccccc1/C=C/C(=O)OC[C@@H]1NC(=O)[C@@H](Cc2c[nH]c3ccccc23)NC(=O)[C@@H](COC(=O)/C=C/c2ccccc2C)NC(=O)[C@@H](C(C)C)NC(=O)[C@H](Cc2ccccc2)NC(=O)[C@@H](C(C)C)NC(=O)[C@@H](C)NC1=O	Mycobacterium tuberculosis	12.5 µM

---

# Tested on: Mycobacterium tuberculosis
# Protocol description: Antitubercular activity against Mycobacterium tuberculosis H37Ra assessed as bacterial growth inhibition
# Format: functional
Square brackets hold non-standard residues; d marks the D form. Peptide text beside a SMILES is read from it.
Listed next: entries and their corresponding MIC.
Measurement type: MIC (µM)

Compound	Unit text	Cmp	Assay result
COc1cc(Br)c(/C=C/C(=O)OC[C@H]2NC(=O)[C@@H](C(C)C)NC(=O)[C@H](Cc3ccccc3)NC(=O)[C@@H](C(C)C)NC(=O)[C@@H](C)NC(=O)[C@H](CO)NC(=O)[C@@H](Cc3c[nH]c4ccccc34)NC2=O)cc1OC	µM	=	50
CC(C)[C@H]1NC(=O)[C@H](Cc2ccccc2)NC(=O)[C@@H](C(C)C)NC(=O)[C@@H](C)NC(=O)[C@H](CO)NC(=O)[C@@H](Cc2c[nH]c3ccccc23)NC(=O)[C@@H](COC(=O)/C=C/c2ccccc2)NC1=O	µM	>	100
COc1ccc(/C=C/C(=O)OC[C@@H]2NC(=O)[C@@H](Cc3c[nH]c4ccccc34)NC(=O)[C@@H](COC(=O)/C=C/c3ccc(OC)c(OC)c3)NC(=O)[C@@H](C(C)C)NC(=O)[C@H](Cc3ccccc3)NC(=O)[C@@H](C(C)C)NC(=O)[C@@H](C)NC2=O)cc1OC	µM	=	100
CC(C)[C@H]1NC(=O)[C@H](Cc2ccccc2)NC(=O)[C@@H](C(C)C)NC(=O)[C@@H](C)NC(=O)[C@H](COC(=O)/C=C/c2ccc(F)cc2)NC(=O)[C@@H](Cc2c[nH]c3ccccc23)NC(=O)[C@@H](COC(=O)/C=C/c2ccc(F)cc2)NC1=O	µM	=	50
COc1ccc(/C=C/C(=O)OC[C@H]2NC(=O)[C@@H](C(C)C)NC(=O)[C@H](Cc3ccccc3)NC(=O)[C@@H](C(C)C)NC(=O)[C@@H](C)NC(=O)[C@H](CO)NC(=O)[C@@H](Cc3c[nH]c4ccccc34)NC2=O)cc1	µM	=	12.5
CC(C)[C@H]1NC(=O)[C@H](Cc2ccccc2)NC(=O)[C@@H](C(C)C)NC(=O)[C@@H](C)NC(=O)[C@H](C)NC(=O)[C@@H](Cc2c[nH]c3ccccc23)NC(=O)[C@@H](C)NC1=O (cyclo([dV][dA][dW]A[dA][dV]F))	µM	=	100
CC(C)[C@H]1NC(=O)CNC(=O)[C@H](CO)NC(=O)[C@@H](Cc2c[nH]c3ccccc23)NC(=O)[C@@H](CO)NC(=O)[C@@H](C(C)C)NC(=O)[C@H](Cc2ccccc2)NC1=O (cyclo([dV][dS][dW]SG[dV]F))	µM	=	100
CO[C@H]1/C=C/O[C@@]2(C)Oc3c(C)c(O)c4c(O)c(c(/C=N/N5CCN(C)CC5)c(O)c4c3C2=O)NC(=O)/C(C)=C\C=C\[C@H](C)[C@H](O)[C@@H](C)[C@@H](O)[C@@H](C)[C@H](OC(C)=O)[C@@H]1C	µM	=	0.00625
CC(C)[C@H]1NC(=O)[C@H](Cc2ccccc2)NC(=O)[C@@H](C(C)C)NC(=O)[C@@H](C)NC(=O)[C@H](COC(=O)/C=C/c2ccc(C(F)(F)F)cc2)NC(=O)[C@@H](Cc2c[nH]c3ccccc23)NC(=O)[C@@H](COC(=O)/C=C/c2ccc(C(F)(F)F)cc2)NC1=O	µM	=	100
CC(C)[C@H]1NC(=O)[C@H](Cc2ccccc2)NC(=O)[C@@H](C(C)C)NC(=O)[C@@H](C)NC(=O)[C@H](CO)NC(=O)[C@@H](Cc2c[nH]c3ccccc23)NC(=O)[C@@H](COC(=O)/C=C/c2ccc(N(C)C)cc2)NC1=O	µM	=	50
COc1cc(/C=C/C(=O)OC[C@@H]2NC(=O)[C@@H](Cc3c[nH]c4ccccc34)NC(=O)[C@@H](COC(=O)/C=C/c3ccc(OCc4ccccc4)c(OC)c3)NC(=O)[C@@H](C(C)C)NC(=O)[C@H](Cc3ccccc3)NC(=O)[C@@H](C(C)C)NC(=O)[C@@H](C)NC2=O)ccc1OCc1ccccc1	µM	=	100
CC(C)[C@H]1NC(=O)[C@H](Cc2ccccc2)NC(=O)[C@@H](C(C)C)NC(=O)[C@@H](C)NC(=O)[C@H](COC(=O)/C=C/c2ccccc2)NC(=O)[C@@H](Cc2c[nH]c3ccccc23)NC(=O)[C@@H](COC(=O)/C=C/c2ccccc2)NC1=O	µM	>	100
CC(C)[C@H]1NC(=O)[C@H](Cc2ccccc2)NC(=O)[C@@H](C(C)C)NC(=O)[C@@H](C)NC(=O)[C@H](CO)NC(=O)[C@@H](Cc2c[nH]c3ccccc23)NC(=O)[C@@H](CO)NC1=O (cyclo([dV][dS][dW]S[dA][dV]F))	µM	>	100
CC(C)[C@H]1NC(=O)[C@H](Cc2ccccc2)NC(=O)[C@@H](C(C)C)NC(=O)[C@@H](C)NC(=O)[C@H](COC(=O)/C=C/c2ccc(Cl)cc2)NC(=O)[C@@H](Cc2c[nH]c3ccccc23)NC(=O)[C@@H](COC(=O)/C=C/c2ccc(Cl)cc2)NC1=O	µM	=	50
COc1ccc(/C=C/C(=O)OC[C@@H]2NC(=O)[C@@H](Cc3c[nH]c4ccccc34)NC(=O)[C@@H](COC(=O)/C=C/c3ccc(OC)cc3)NC(=O)[C@@H](C(C)C)NC(=O)[C@H](Cc3ccccc3)NC(=O)[C@@H](C(C)C)NC(=O)[C@@H](C)NC2=O)cc1	µM	=	100
CC(C)[C@H]1NC(=O)[C@H](Cc2ccccc2)NC(=O)[C@@H](C(C)C)NC(=O)[C@@H](C)NC(=O)[C@H](COC(=O)/C=C/c2ccc(N(C)C)cc2)NC(=O)[C@@H](Cc2c[nH]c3ccccc23)NC(=O)[C@@H](COC(=O)/C=C/c2ccc(N(C)C)cc2)NC1=O	µM	=	50
NNC(=O)c1ccncc1	µM	=	0.0125

---

Measured MIC accompanies every entry in the list below.
# Test system: Mycobacterium tuberculosis
# Protocol description: Antitubercular activity against Mycobacterium tuberculosis H37Ra assessed as bacterial growth inhibition
# Format: functional

Structure	Experimental target	MIC
Cc1ccc(/C=C/C(=O)OC[C@@H]2NC(=O)[C@@H](Cc3c[nH]c4ccccc34)NC(=O)[C@@H](COC(=O)/C=C/c3ccc(C)cc3)NC(=O)[C@@H](C(C)C)NC(=O)[C@H](Cc3ccccc3)NC(=O)[C@@H](C(C)C)NC(=O)[C@@H](C)NC2=O)cc1	Mycobacterium tuberculosis	12.5 µM
CC(C)[C@H]1NC(=O)[C@H](Cc2ccccc2)NC(=O)[C@@H](C(C)C)NC(=O)[C@@H](C)NC(=O)[C@H](COC(=O)/C=C/c2ccccc2Cl)NC(=O)[C@@H](Cc2c[nH]c3ccccc23)NC(=O)[C@@H](COC(=O)/C=C/c2ccccc2Cl)NC1=O	Mycobacterium tuberculosis	50 µM

These data points were gathered from ChEMBL document CHEMBL4813928.
